- studySystem: Xyl43Nc (Neocallimastix californiae)
- Sequence (A0A1Y2A0L6 1-326): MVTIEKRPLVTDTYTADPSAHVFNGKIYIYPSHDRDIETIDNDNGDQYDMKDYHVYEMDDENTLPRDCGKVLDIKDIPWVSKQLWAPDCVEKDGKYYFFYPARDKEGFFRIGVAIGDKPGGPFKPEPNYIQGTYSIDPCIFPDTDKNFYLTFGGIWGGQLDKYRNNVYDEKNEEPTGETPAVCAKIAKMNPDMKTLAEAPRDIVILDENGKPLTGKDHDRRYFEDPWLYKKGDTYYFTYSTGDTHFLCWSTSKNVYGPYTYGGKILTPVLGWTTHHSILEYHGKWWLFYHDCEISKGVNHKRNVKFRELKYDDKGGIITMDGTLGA
valueType: Ki
Numeric answer plus unit only.

Lab note: OC1OC[C@@H](O)[C@H](O)[C@H]1O (stereo partly shown) gave Ki of 6.11 mM
